Molecular target: Recombinant human integrin αVβ6 (Homo sapiens, UniProt P06756+P18564)
Sequence (P06756 31-992 limits assumed): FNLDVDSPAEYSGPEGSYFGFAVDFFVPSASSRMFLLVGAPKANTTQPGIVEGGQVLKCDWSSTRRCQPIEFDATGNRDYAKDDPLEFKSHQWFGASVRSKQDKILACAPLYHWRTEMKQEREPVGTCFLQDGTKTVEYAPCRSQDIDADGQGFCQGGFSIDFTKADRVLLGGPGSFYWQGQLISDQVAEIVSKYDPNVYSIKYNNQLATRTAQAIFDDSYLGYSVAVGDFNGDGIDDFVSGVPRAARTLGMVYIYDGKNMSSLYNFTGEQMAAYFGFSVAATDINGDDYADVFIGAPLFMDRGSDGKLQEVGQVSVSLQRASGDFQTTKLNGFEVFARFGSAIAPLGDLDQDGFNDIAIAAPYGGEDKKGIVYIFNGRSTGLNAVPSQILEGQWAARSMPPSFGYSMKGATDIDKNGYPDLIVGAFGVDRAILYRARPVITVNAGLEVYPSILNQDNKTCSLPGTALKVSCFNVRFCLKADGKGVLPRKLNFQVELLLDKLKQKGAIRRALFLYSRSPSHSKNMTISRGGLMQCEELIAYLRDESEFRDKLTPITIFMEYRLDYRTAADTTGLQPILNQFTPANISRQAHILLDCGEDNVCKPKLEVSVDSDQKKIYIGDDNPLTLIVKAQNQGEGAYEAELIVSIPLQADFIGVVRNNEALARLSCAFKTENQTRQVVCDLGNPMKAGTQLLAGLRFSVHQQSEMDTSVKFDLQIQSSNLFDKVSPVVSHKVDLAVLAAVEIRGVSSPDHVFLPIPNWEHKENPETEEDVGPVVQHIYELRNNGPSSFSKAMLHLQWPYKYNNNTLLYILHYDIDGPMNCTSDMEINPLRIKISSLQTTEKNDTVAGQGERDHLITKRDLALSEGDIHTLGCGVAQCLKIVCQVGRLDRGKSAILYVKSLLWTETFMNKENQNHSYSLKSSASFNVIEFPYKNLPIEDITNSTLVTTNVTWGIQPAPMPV
Sequence (P18564 22-707 limits assumed): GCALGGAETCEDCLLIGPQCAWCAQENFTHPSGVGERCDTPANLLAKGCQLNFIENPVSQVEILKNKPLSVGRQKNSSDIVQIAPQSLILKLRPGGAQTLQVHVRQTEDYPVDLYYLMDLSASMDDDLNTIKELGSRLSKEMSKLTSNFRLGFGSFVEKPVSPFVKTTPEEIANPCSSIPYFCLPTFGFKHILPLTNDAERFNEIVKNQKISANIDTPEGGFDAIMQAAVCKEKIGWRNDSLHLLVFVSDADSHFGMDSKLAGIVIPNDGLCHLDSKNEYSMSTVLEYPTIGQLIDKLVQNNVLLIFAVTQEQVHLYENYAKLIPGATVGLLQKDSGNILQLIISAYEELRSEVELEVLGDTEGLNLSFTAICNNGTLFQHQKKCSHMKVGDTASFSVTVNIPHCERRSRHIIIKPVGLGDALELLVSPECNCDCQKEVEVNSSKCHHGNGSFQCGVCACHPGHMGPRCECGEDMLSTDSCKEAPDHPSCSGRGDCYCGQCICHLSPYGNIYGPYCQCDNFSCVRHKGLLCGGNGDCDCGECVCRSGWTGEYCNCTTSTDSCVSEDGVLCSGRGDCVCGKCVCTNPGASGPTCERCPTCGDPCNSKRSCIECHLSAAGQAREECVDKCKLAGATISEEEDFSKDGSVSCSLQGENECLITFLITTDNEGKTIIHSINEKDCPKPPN
Test: Solid Phase Receptor Assay (SPRA) for αVβ6 function
Conditions: plate-bound human LAP
Threshold check on IC50: strictly below 100 nM is 1.0; on or above 100 nM is 0.0.

Below are worked cases with known answers.
molecule	discrete label
COc1ccc(C2CCOCC2)cc1C(CC(=O)O)Cc1cc(OCCc2ccc3c(n2)NCCC3)n(C)n1 (stereo not shown) [Example 46]	0.0
Cn1nc(CC(CC(=O)O)c2cc3c(c(C(C)(C)C)c2)OCCO3)cc1OCCc1ccc2c(n1)NCCC2 (stereo not shown) [Example 16]	1.0
COc1ccc(C2(C(F)F)CC2)cc1C(CC(=O)O)Cc1cc(OCCc2ccc3c(n2)NCCC3)n(C)n1 (stereo not shown) [Example 21]	0.0

Please check: IC50 for COCC1(c2cc(C(CC(=O)O)Cc3csc(CCCc4ccc5c(n4)NCCC5)n3)cc(C(C)(C)C)c2)CCOCC1 (stereo not shown) [Example 32] , strictly under 100 nM or not?
0.0

Please check: IC50 for Cn1nc(CC(CC(=O)O)c2cc(C(C)(C)C)ccc2OC(F)(F)F)cc1OCCc1ccc2c(n1)NCCC2 (stereo not shown) [Example 20] , strictly under 100 nM or not?
0.0

Please check: IC50 for Cn1nc(CC(CC(=O)O)c2cc(C(C)(C)C)cc(C(C)(C)CO)c2)cc1OCCc1ccc2c(n1)NCCC2 (stereo not shown) [Example 7] , strictly under 100 nM or not?
0.0

Please check: IC50 for Cn1nc(CC(CC(=O)O)c2cc(C(C)(C)C)cc(C3(C(F)F)CC3)c2)cc1OCCc1ccc2c(n1)NCCC2 (stereo not shown) [Example 6] , strictly under 100 nM or not?
0.0

Please check: IC50 for COc1ccc(C(C)(C)O)cc1C(CC(=O)O)Cc1cc(OCCc2ccc3c(n2)NCCC3)n(C)n1 (stereo not shown) [Example 22] , strictly under 100 nM or not?
0.0
